- Tested on: RXF 393 renal
- assay.protocol: NCI tumour cell line growth inhibition, 48 h; in the data active means GI50 below about 0.43 µM; inactive means the rest
Your response should consist of one outcome taken from Yes = active, No = inactive

Consider the worked cases shown below.
{"compound": "COc1ccc2c(c1)C(C)Cc1c(ncnc1-n1cnc3cc(C)ccc31)N2C (stereo not drawn)", "category": "Yes"}
{"compound": "CCCCCCCCCCN1CCC(N2CCCCC2)CC1", "category": "No"}

Pending compound:
Q. What outcome does the record of this test show for CN1CCN(c2ccc(Nc3ncc4cc(C#N)c(=O)n(C5CCCC5)c4n3)cc2)CC1 ?
A. No

###

This section presents molecules with their documented TGI values.
- Test system: SW-620 colon
- assay.protocol: NCI tumour cell line growth inhibition, 48 h

Worked cases, answers included:
{"molecule": "CC12CC1C(c1cccc([N+](=O)[O-])c1)(c1cccc([N+](=O)[O-])c1)N=N2 (stereo not drawn)", "recorded.result": "> 100 µM"}
{"molecule": "COC(=O)/C(=C\\c1ccc(N(CCC#N)CCC#N)cc1)NC(=O)c1cc([N+](=O)[O-])ccc1Cl", "recorded.result": "> 100 µM"}

// below: TGI requested for another molecule
Q. Give its TGI value. Item: COC(=O)c1cc2c(cc1CC(Cc1ccc3c(c1)CCC3)C(=O)OC)CCC2 (stereo not drawn)
A. > 100 µM
